- Test system: PANC-1 complex spheroid growth, percent test/control
- Protocol: Anticancer human tumor PANC-1 cell line growth inhibition [Asc];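 note: spheroids exposed to agents for 7 days; percent viability relative to DMSO vehicle wells taken as 100%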
- Measurement context: second compound 0.0316 µM; first compound 10 µM; active compounds read low
Measured quantity: viability, T/C

Q: Return the recorded viability, T/C value; entry: C=C(F)C(=O)N1CCN(c2nc(OCC3CCCN3C)nc3c2CCN(c2cccc4cccc(Cl)c24)C3)CC1CC#N (stereo not drawn) + CNC(C)C(=O)NC1CN(S(=O)(=O)c2cccc(S(=O)(=O)N3CCC4CCC(C(=O)NC(c5ccccc5)c5ccccc5)N4C(=O)C(NC(=O)C(C)NC)C3)c2)CCC2CCC(C(=O)NC(c3ccccc3)c3ccccc3)N2C1=O
A: 5.07%

Q: Find the measured viability, T/C of C=C(F)C(=O)N1CCN(c2nc(OCC3CCCN3C)nc3c2CCN(c2cccc4cccc(Cl)c24)C3)CC1CC#N (stereo not drawn) + Cc1c(S(C)(=O)=O)c(-c2cc(F)cc(N3CCN(c4ccc(NS(=O)(=O)c5ccc(NC(CCN6CCC(C(=O)OCCCP(=O)(O)O)CC6)CSc6ccccc6)c(S(=O)(=O)C(F)(F)F)c5)cc4)CC3)c2)c(-c2ccc(Cl)cc2)n1C(C)C and report it.
A: 12.5%

Q: Give the reported viability, T/C for this compound. C#Cc1c(F)ccc2cc(O)cc(-c3ncc4c(N5CC6CCC(C5)N6)nc(OCC56CCCN5CC(F)C6)nc4c3F)c12 (stereo not drawn) + CNC(C)C(=O)NC1CN(S(=O)(=O)c2cccc(S(=O)(=O)N3CCC4CCC(C(=O)NC(c5ccccc5)c5ccccc5)N4C(=O)C(NC(=O)C(C)NC)C3)c2)CCC2CCC(C(=O)NC(c3ccccc3)c3ccccc3)N2C1=O
A: 70.1%

Q: For the compound C=CC(=O)N1CCN(c2nc(=O)n(-c3c(C)ccnc3C(C)C)c3nc(-c4c(O)cccc4F)c(F)cc23)C(C)C1 (stereo not drawn) + CNC(C)C(=O)NC1CN(S(=O)(=O)c2cccc(S(=O)(=O)N3CCC4CCC(C(=O)NC(c5ccccc5)c5ccccc5)N4C(=O)C(NC(=O)C(C)NC)C3)c2)CCC2CCC(C(=O)NC(c3ccccc3)c3ccccc3)N2C1=O , report viability, T/C.
A: 93.3%

Q: Fill in reported viability, T/C for this entry: O=C(c1cc(Cc2n[nH]c(=O)c3ccccc23)ccc1F)N1CCN(C(=O)C2CC2)CC1 + CNC(C)C(=O)NC1CN(S(=O)(=O)c2cccc(S(=O)(=O)N3CCC4CCC(C(=O)NC(c5ccccc5)c5ccccc5)N4C(=O)C(NC(=O)C(C)NC)C3)c2)CCC2CCC(C(=O)NC(c3ccccc3)c3ccccc3)N2C1=O
A: 91.2%

Data credit: PubChem BioAssay AID1963435
